Values from patent US8329711B2

measured on: UniProtKB P30291
Sequence (P30291 whole entry): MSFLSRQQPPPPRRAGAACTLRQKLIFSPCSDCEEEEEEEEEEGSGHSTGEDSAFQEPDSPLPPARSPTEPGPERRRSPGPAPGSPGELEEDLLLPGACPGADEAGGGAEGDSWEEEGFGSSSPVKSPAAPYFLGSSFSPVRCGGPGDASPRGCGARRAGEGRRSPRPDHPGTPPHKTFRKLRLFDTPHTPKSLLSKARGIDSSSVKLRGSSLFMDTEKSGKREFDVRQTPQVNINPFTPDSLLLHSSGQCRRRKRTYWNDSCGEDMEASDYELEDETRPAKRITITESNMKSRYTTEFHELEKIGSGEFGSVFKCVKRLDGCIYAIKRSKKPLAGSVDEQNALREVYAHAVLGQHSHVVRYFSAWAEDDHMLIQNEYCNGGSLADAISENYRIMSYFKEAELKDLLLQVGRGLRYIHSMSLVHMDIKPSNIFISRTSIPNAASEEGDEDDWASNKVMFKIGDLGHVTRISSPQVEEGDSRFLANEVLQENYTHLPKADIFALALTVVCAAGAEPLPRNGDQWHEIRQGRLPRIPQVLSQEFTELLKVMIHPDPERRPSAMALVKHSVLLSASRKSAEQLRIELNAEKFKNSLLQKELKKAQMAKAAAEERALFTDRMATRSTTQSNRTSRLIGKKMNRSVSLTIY
assay overview: Wee1 kinase-inhibitory effect (33P-ATP filter assay with GST-tagged Wee1)
recorded conditions: purified GST-Wee1, Poly(Lys,Tyr) substrate, 10 μM ATP, 30° C. for 30 minutes; read-out: Weel-Inhibitory Effect (IC50)
property name: IC50 (nM)
The reply should contain only the number, in nM.

| smiles record | measured |
| --- | --- |
| C=CCn1c(=O)c2cnc(Nc3ccc(C4CCN(C)CC4)cc3)nc2n1-c1cccc(-n2ccccc2=O)n1 | 11 |
| CN1Cc2cc(Nc3ncc4c(=O)n(C)n(-c5cccc(-n6ccccc6=O)n5)c4n3)ccc2C2(CC2)C1 | 12.6 |

Look up IC50 for this compound: C=CCn1c(=O)c2cnc(Nc3ccc(N4CC(F)(F)C4)cc3)nc2n1-c1cccc(-n2ccccc2=O)n1 6.9

// IC50 lookup, key: C=CCn1c(=O)c2cnc(Nc3ccc(N4CCN(C)CC4)cc3)nc2n1-c1cc(F)cc(-n2ccccc2=O)c1 7.2

// returns reported IC50 for input C#CCn1c(=O)c2cnc(Nc3ccc4c(c3)CN(C)CC4)nc2n1-c1cccc(-n2ccccc2=O)n1 4.4

I have this compound here, C=CCn1c(=O)c2cnc(Nc3ccc(N4CC[C@H](N(C)C)C4)cc3)nc2n1-c1cccc(-n2ccccc2=O)n1 , and I need its recorded IC50. 16

What value of measured IC50 is listed for C=CCn1c(=O)c2cnc(Nc3ccc4c(c3)CN(C)CC4)nc2n1-c1cccc(-n2ccccc2=O)n1 ? 17.9

What measured IC50 goes with CC(C)n1c(=O)c2cnc(Nc3ccc4c(c3)CN(C)CC43CC3)nc2n1-c1cccc(-n2ccccc2=O)n1 ? 20.6

// query IC50 value for entry C=CCn1c(=O)c2cnc(Nc3ccc(N4CCN(C)CC4)c(C)c3)nc2n1-c1cccc(-n2ccccc2=O)n1 10
